molecules and their reported pIC50
assay-system: CD73 activity in U138-MG cells (Homo sapiens (Human))
Sequence (P21589 27-574): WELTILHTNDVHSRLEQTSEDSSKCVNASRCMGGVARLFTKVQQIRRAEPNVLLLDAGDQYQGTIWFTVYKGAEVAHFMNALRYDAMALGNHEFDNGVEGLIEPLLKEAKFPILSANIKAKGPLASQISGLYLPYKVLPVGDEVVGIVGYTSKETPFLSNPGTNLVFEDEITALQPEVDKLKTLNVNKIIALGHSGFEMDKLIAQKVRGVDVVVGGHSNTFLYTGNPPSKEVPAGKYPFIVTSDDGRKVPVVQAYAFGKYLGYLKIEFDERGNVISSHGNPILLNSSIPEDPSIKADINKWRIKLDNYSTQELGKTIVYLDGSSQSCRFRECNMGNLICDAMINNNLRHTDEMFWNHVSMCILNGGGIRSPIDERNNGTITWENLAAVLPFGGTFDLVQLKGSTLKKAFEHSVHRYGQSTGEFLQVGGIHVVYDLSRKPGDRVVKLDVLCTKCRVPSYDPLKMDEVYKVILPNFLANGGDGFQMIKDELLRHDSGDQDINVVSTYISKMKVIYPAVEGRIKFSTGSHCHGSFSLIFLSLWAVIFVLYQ
test-method-notes: U138-MG inhibition assay (inorganic phosphate from AMP, PiColorLock Gold)
reported-conditions: 100 μM AMP, 30 min pre-incubation, 1 hour at 37° C.
When answering, recall that pIC50 equals minus log10 of the concentration in mol/L, and write that number alone.

Known pIC50 results, listed for orientation:
O=c1[nH]cc(-c2cc3c(N4CCC(OCCN5CCCCC5)C4)ccnc3s2)c(=O)[nH]1 (centres unmarked)    6.75
CN1CCOC(COC2CN(c3ncc(F)c4nn(-c5c[nH]c(=O)[nH]c5=O)cc34)CC2(F)F)C1 (centres unmarked)    7.96
O=c1[nH]cc(-c2cc3c(N4CCC5(COC5)C4)nccn3n2)c(=O)[nH]1    6.94

We next turn to a different molecule, shown below.
Give its pIC50 value. Item: N#Cc1cnc2sc(-c3c[nH]c(=O)[nH]c3=O)cc2c1N1CCC(OCCN2CCCCC2)C1 (centres unmarked) 6.61

====

assay-system: CD73 activity in U138-MG cells (Homo sapiens (Human))
test-method-notes: U138-MG inhibition assay (inorganic phosphate from AMP, PiColorLock Gold)
reported-conditions: 100 μM AMP, 30 min pre-incubation, 1 hour at 37° C.
Structures can show the parent of a compound that is named as a salt.
Classify: YES when IC50 is strictly less than 20 nM; NO when IC50 is not.

The following molecules have reported results that may help.
CC1(C)CN(c2cncc3nn(-c4c[nH]c(=O)[nH]c4=O)cc23)CC1(F)F    YES
CCC1(C)CCN(c2ncnc3nn(-c4c[nH]c(=O)[nH]c4=O)cc23)C1 (centres unmarked)    YES
CC1(C)CN(c2ncc(Cl)n3nc(-c4c[nH]c(=O)[nH]c4=O)cc23)CC1(F)F    YES
O=c1[nH]cc(-c2cc3nccc(N4CCC(OCCN5CCCCC5)C4)c3s2)c(=O)[nH]1 (centres unmarked)    NO
CC1(C)CN(c2ncnc3sc(-c4c[nH]c(=O)[nH]c4=O)cc23)CC1(F)F    NO
O=c1[nH]cc(-c2cc3c(N4CC(OCCN5CCCCC5)C(F)(F)C4)ncnc3s2)c(=O)[nH]1 (centres unmarked) [Example 5, formate salt]    NO
O=c1[nH]cc(-n2cc3c(N4CC(F)(F)C5(CC5)C4)ncc(F)c3n2)c(=O)[nH]1    YES
O=C(OC1CN(c2ncnc3oc(-c4c[nH]c(=O)[nH]c4=O)cc23)CC1(F)F)N1CCOCC1 (centres unmarked)    NO
O=c1[nH]cc(-c2cc3c(N4CCC(OCCN5CCC(C(F)(F)F)CC5)C4)ncnc3o2)c(=O)[nH]1 (centres unmarked)    NO
Cc1nc(N2CC(C)(C)C(F)(F)C2)c2cc(-c3c[nH]c(=O)[nH]c3=O)nn2c1Cl    YES

Strictly below 20 nM: is that where IC50 of O=c1[nH]cc(-c2cc3c(N4CC(OCCN5CCOCC5)C(F)(F)C4)nccn3n2)c(=O)[nH]1 (centres unmarked) sits? NO

Strictly below 20 nM: is that where IC50 of O=c1[nH]cc(-c2cc3c(N4CC(F)(F)C5(CCC5)C4)ncnc3o2)c(=O)[nH]1 sits? NO

Strictly below 20 nM: is that where IC50 of O=c1[nH]cc(-n2cc3c(N4CC(F)(F)C5(CCC5)C4)ncc(Cl)c3n2)c(=O)[nH]1 sits? YES
